Reference source for all entries: ChEMBL document CHEMBL3885861

- Species: Rattus norvegicus
- TEST_METHOD_NOTES: Open TG-GATES - Regimen: Single
- Format: toxicity, organism-based, Sprague-Dawley
- Set-up: regimen Single, gender Male, age 6 weeks
- CONDITION_PARAMETERS: in vivo, po, 300 mg/kg, 3 h, tissue Blood, route gavage, dose level Middle
ATTRIBUTE_MEASURED: MCHC (%)
Kindly answer with a numeric value in %, unit omitted.

Challenge: Given COC1=CC(=O)C[C@@H](C)[C@]12Oc1c(Cl)c(OC)cc(OC)c1C2=O [GRISEOFULVIN] , state its recorded MCHC.
Response given: 34.1

Challenge: Reported MCHC for COc1ccc2[nH]c([S+]([O-])Cc3ncc(C)c(OC)c3C)nc2c1 (centres undefined) [OMEPRAZOLE] : what is it?
Response given: 33.9

Challenge: What does the record list as MCHC for NC(N)=Nc1nc(CSCCC(N)=NS(N)(=O)=O)cs1 [FAMOTIDINE] ?
Response given: 35.3

Challenge: # lookup: MCHC of CCOC(=O)CCC(=O)O[C@H]1[C@H](O[C@@H]2[C@@H](C)[C@H](O[C@H]3C[C@@](C)(OC)[C@@H](O)[C@H](C)O3)[C@@H](C)C(=O)O[C@H](CC)[C@@](C)(O)[C@H](O)[C@@H](C)C(=O)[C@H](C)C[C@@]2(C)O)O[C@H](C)C[C@@H]1N(C)C [ERYTHROMYCIN ETHYLSUCCINATE]
Response given: 33.2

---

- Species: Rattus norvegicus
- TEST_METHOD_NOTES: Open TG-GATES - Regimen: Daily Repeat
- Assay type: toxicity, organism-based, Sprague-Dawley
- Design: regimen Daily Repeat, gender Male, age 6 weeks
- CONDITION_PARAMETERS: in vivo, po, 10 mg/kg, […], tissue Plasma, route gavage, dose level Low, time 14 day
ATTRIBUTE_MEASURED: AST (IU/L)
Give just the number in IU/L; leave the unit off.

Challenge: For CC1=C(/C=C/C(C)=C/C=C/C(C)=C/CO)C(C)(C)CCC1 , what is its reported AST?
Response given: 70.6

Challenge: I'd like to know its AST. The compound in question is CN(C)CCCN1c2ccccc2CCc2ccccc21
Response given: 66.4

Challenge: Would you mind telling me what AST value was observed for CC(C)OC(=O)C(C)(C)Oc1ccc(C(=O)c2ccc(Cl)cc2)cc1 [FENOFIBRATE] ?
Response given: 64

Challenge: AST lookup needed for CN(C)CCN(Cc1cccs1)c1ccccn1 , thanks.
Response given: 68.6

---

- Species on record: Rattus norvegicus
- TEST_METHOD_NOTES: Open TG-GATES - Regimen: Daily Repeat
- Assay type: toxicity, organism-based, Sprague-Dawley
- Design: regimen Daily Repeat, gender Male, age 6 weeks
- CONDITION_PARAMETERS: in vivo, po, 100 mg/kg, […], tissue Plasma, route gavage, dose level Low, time 7 day
ATTRIBUTE_MEASURED: K
Form entry: enter the amount, then its unit.

Challenge: Given the compound COC1=CC(=O)C[C@@H](C)[C@]12Oc1c(Cl)c(OC)cc(OC)c1C2=O , what is its reported K?
Response given: 3.8 meq/L

Challenge: Which K reading was recorded for the compound CCOC(=O)CCC(=O)O[C@H]1[C@H](O[C@@H]2[C@@H](C)[C@H](O[C@H]3C[C@@](C)(OC)[C@@H](O)[C@H](C)O3)[C@@H](C)C(=O)O[C@H](CC)[C@@](C)(O)[C@H](O)[C@@H](C)C(=O)[C@H](C)C[C@@]2(C)O)O[C@H](C)C[C@@H]1N(C)C [ERYTHROMYCIN ETHYLSUCCINATE] ?
Response given: 4.2 meq/L

Challenge: Please give the measured K for this compound: COc1ccc2[nH]c([S+]([O-])Cc3ncc(C)c(OC)c3C)nc2c1 (centres undefined)
Response given: 4 meq/L

Challenge: Reported K for CCOc1ccc(NC(=O)CC(C)O)cc1 (centres undefined) : what is it?
Response given: 4.2 meq/L

---

- Species: Rattus norvegicus
- TEST_METHOD_NOTES: Open TG-GATES - Regimen: Daily Repeat
- Assay type: toxicity, organism-based, Sprague-Dawley
- Set-up: regimen Daily Repeat, gender Male, age 6 weeks
- CONDITION_PARAMETERS: in vivo, po, 300 mg/kg, 72 h, tissue Plasma, route gavage, dose level Middle, time 3 day
ATTRIBUTE_MEASURED: gamma-GTP (IU/L)
Give the quantity in IU/L, number only.

Challenge: Entry under review: COC1=CC(=O)C[C@@H](C)[C@]12Oc1c(Cl)c(OC)cc(OC)c1C2=O [GRISEOFULVIN] . Reported gamma-GTP?
Response given: 1.2

Challenge: # get_value(readout='gamma-GTP', item= NC(N)=Nc1nc(CSCCC(N)=NS(N)(=O)=O)cs1 [FAMOTIDINE] )
Response given: 1.2

Challenge: Given the entry CCOc1ccc(NC(=O)CC(C)O)cc1 (stereo not given) [BUCETIN] , report its measured gamma-GTP.
Response given: 1

Challenge: # input molecule: COc1ccc2[nH]c([S+]([O-])Cc3ncc(C)c(OC)c3C)nc2c1 (stereo not given) [OMEPRAZOLE] ; wanted: its gamma-GTP
Response given: 1

Challenge: // lookup gamma-GTP for CCOC(=O)CCC(=O)O[C@H]1[C@H](O[C@@H]2[C@@H](C)[C@H](O[C@H]3C[C@@](C)(OC)[C@@H](O)[C@H](C)O3)[C@@H](C)C(=O)O[C@H](CC)[C@@](C)(O)[C@H](O)[C@@H](C)C(=O)[C@H](C)C[C@@]2(C)O)O[C@H](C)C[C@@H]1N(C)C [ERYTHROMYCIN ETHYLSUCCINATE]
Response given: 1.4

---

- Species on record: Rattus norvegicus
- TEST_METHOD_NOTES: Open TG-GATES - Regimen: Single
- Type: toxicity, organism-based, Sprague-Dawley
- Parameters: regimen Single, gender Male, age 6 weeks
- CONDITION_PARAMETERS: in vivo, po, 300 mg/kg, 3 h, tissue Blood, route gavage, dose level Middle
ATTRIBUTE_MEASURED: Lym (%)
The figure you give is taken to be in %; do not add the unit.

Challenge: I would be grateful if you could share the reported Lym for CCOC(=O)CCC(=O)O[C@H]1[C@H](O[C@@H]2[C@@H](C)[C@H](O[C@H]3C[C@@](C)(OC)[C@@H](O)[C@H](C)O3)[C@@H](C)C(=O)O[C@H](CC)[C@@](C)(O)[C@H](O)[C@@H](C)C(=O)[C@H](C)C[C@@]2(C)O)O[C@H](C)C[C@@H]1N(C)C [ERYTHROMYCIN ETHYLSUCCINATE] .
Response given: 75.4

Challenge: # get_value(readout='Lym', item= NC(N)=Nc1nc(CSCCC(N)=NS(N)(=O)=O)cs1 )
Response given: 76.2

Challenge: Look up Lym: COC1=CC(=O)C[C@@H](C)[C@]12Oc1c(Cl)c(OC)cc(OC)c1C2=O
Response given: 71.6

Challenge: Request the reported Lym associated with COc1ccc2[nH]c([S+]([O-])Cc3ncc(C)c(OC)c3C)nc2c1 (centres undefined)
Response given: 73.2

---

- Species on record: Rattus norvegicus
- TEST_METHOD_NOTES: Open TG-GATES - Regimen: Single
- Assay type: toxicity, organism-based, Sprague-Dawley
- Design: regimen Single, gender Male, age 6 weeks
- CONDITION_PARAMETERS: in vivo, po, 1000 mg/kg, 3 h, tissue Plasma, route gavage, dose level High
ATTRIBUTE_MEASURED: BUN (mg/dL)
# output: bare number, implied unit mg/dL

Challenge: Recorded BUN of COC1=CC(=O)C[C@@H](C)[C@]12Oc1c(Cl)c(OC)cc(OC)c1C2=O , please.
Response given: 10.6

Challenge: Quick check: BUN of CCOC(=O)CCC(=O)O[C@H]1[C@H](O[C@@H]2[C@@H](C)[C@H](O[C@H]3C[C@@](C)(OC)[C@@H](O)[C@H](C)O3)[C@@H](C)C(=O)O[C@H](CC)[C@@](C)(O)[C@H](O)[C@@H](C)C(=O)[C@H](C)C[C@@]2(C)O)O[C@H](C)C[C@@H]1N(C)C [ERYTHROMYCIN ETHYLSUCCINATE] ?
Response given: 11.8

Challenge: // returns reported BUN for input CC(C)OC(=O)C(C)(C)Oc1ccc(C(=O)c2ccc(Cl)cc2)cc1 [FENOFIBRATE]
Response given: 8.2

Challenge: I'd like to know its BUN. The compound in question is COc1ccc2[nH]c([S+]([O-])Cc3ncc(C)c(OC)c3C)nc2c1 (stereo not given)
Response given: 11.2

Challenge: Query (compound): NC(N)=Nc1nc(CSCCC(N)=NS(N)(=O)=O)cs1 ; field requested: BUN
Response given: 9.4
